Fluorescence recovery rate %: recorded values
- Tested on: Hela cells
- METHOD DESCRIPTION: Cell membrane fluidity (Laurdan fluorescence recovery) in Hela cells
- Assay type: cell-based
- DETAILS: 50 nM, 40 s
API: value field is a number in %; no unit string.

Observe how each entry below is paired with its result.
[
  {
    "COMPOUND": "CCC=CCC=CCC=CCCCCCCCC(=O)OCC1OC(O)C(O)C(O)C1O (stereo not shown)",
    "REPORTED VALUE": 64.10
  },
  {
    "COMPOUND": "CCC=CCC=CCC=CCC=CCC=CCC=CCCC(=O)OC(C)C(N)C(=O)O (stereo not shown)",
    "REPORTED VALUE": 67.43
  },
  {
    "COMPOUND": "O=C(O)CCCCCCC(=O)O",
    "REPORTED VALUE": 66.42
  },
  {
    "COMPOUND": "CCCCCCCCC=CCCCCCCCC(=O)OCC(O)C1OC(=O)C(O)=C1O (stereo not shown)",
    "REPORTED VALUE": 62.62
  },
  {
    "COMPOUND": "CCCCCCCC(=O)O",
    "REPORTED VALUE": 67.94
  }
]

Prompt: Would you kindly share the measured Fluorescence recovery rate % for CCC=CCC=CCC=CCC=CCC=CCCCC(=O)NC(CO)C(=O)O (stereo not shown) ?
Completion: 62.94

Prompt: CCCCCCCCCCCCCCCCCC(=O)NCCCCC(N)C(=O)O (stereo not shown) ?
Completion: 65.47

====

Insulin: recorded values
- Tested on: human pancreatic β-cells
- METHOD DESCRIPTION: Insulin secretion from human islet β cells (ELISA of supernatant)
- Type: cell-based
- DETAILS: 5 nM, 6 h
API: value field is a number in ng/mL; no unit string.

Observe how each entry below is paired with its result.
[
  {
    "MOLECULE": "CCCCCCCCCCCCCCCCCCCC(=O)OC(C)C(N)C(=O)O (stereo not drawn)",
    "REPORTED VALUE": 0.31
  },
  {
    "MOLECULE": "CCCCCC(=O)OC(C)C(N)C(=O)O (stereo not drawn)",
    "REPORTED VALUE": 0.37
  },
  {
    "MOLECULE": "CCCC(=O)OCC(N)C(=O)O (stereo not drawn)",
    "REPORTED VALUE": 0.39
  }
]

Prompt: // fetch human pancreatic β-cells Insulin for CCCCCCCCCCCCCCCCCC(=O)OCC(N)C(=O)O (stereo not drawn)
Completion: 0.30

Prompt: NC(CCCCNC(=O)CCCCCCCCCCCCCCCCCCC(=O)O)C(=O)O (stereo not drawn) ?
Completion: 0.35

Prompt: CCCCCCCCCC(=O)NCCCCC(N)C(=O)O (stereo not drawn) ?
Completion: 0.47

====

- Tested on: Hela cells
- METHOD DESCRIPTION: Cell membrane fluidity (Laurdan fluorescence recovery) in Hela cells
- Type: cell-based
- DETAILS: 10 nM, 60 s
EXPERIMENTAL ENDPOINT: Fluorescence recovery rate %

Observe how each entry below is paired with its result.
[
  {
    "MOLECULE": "O=C(O)CCCCCCC(=O)O",
    "Fluorescence recovery rate %": "64.45%"
  },
  {
    "MOLECULE": "CCC=CCC=CCC=CCC=CCC=CCCCC(=O)NC(CO)C(=O)O (stereo not shown)",
    "Fluorescence recovery rate %": "65.24%"
  },
  {
    "MOLECULE": "CCC=CCC=CCC=CCCCCCCCC(=O)OCC1OC(O)C(O)C(O)C1O (stereo not shown)",
    "Fluorescence recovery rate %": "65.11%"
  },
  {
    "MOLECULE": "CCCCCCCCCCCCCCCCCC(=O)NCCCCC(N)C(=O)O (stereo not shown)",
    "Fluorescence recovery rate %": "65.40%"
  },
  {
    "MOLECULE": "CCCCCCCC(=O)O",
    "Fluorescence recovery rate %": "65.45%"
  }
]

Prompt: // fetch Hela cells Fluorescence recovery rate % for CCCCCCCCC=CCCCCCCCC(=O)OCC(O)C1OC(=O)C(O)=C1O (stereo not shown)
Completion: 64.67%

Prompt: CCC=CCC=CCC=CCC=CCC=CCC=CCCC(=O)OC(C)C(N)C(=O)O (stereo not shown) ?
Completion: 66.59%
